- Assay Target: DRB1*12:01 (Homo sapiens, UniProt P01903+P01911, A100R/A169T/D57E/D86V/F55L/H45Y/K41T/L162R/M171V/P40S/Q125H/Q178H/Q39Y/Q99D/R42G/S66L/T262R/V114A/V67L/W38E/Y59H/Y61H/Y89S)
- Assay Name: biochemical
Where a SMILES comes first, the peptide text is derived from it.
Value Kind: IC50
Hey, just the number and the unit after it is fine.

A selection of reference data follows.
>  <Molecule>
CC[C@H](C)[C@H](NC(=O)[C@H](CCCNC(=N)N)NC(=O)[C@H](CC(C)C)NC(=O)[C@H](Cc1c[nH]cn1)NC(=O)CNC(=O)[C@@H](N)CCCNC(=N)N)C(=O)N[C@@H](C)C(=O)NCC(=O)N[C@@H](Cc1c[nH]cn1)C(=O)N[C@@H](Cc1c[nH]cn1)C(=O)N[C@@H](CC(C)C)C(=O)NCC(=O)N[C@@H](CCCNC(=N)N)C(=O)N[C@@H](CS)C(=O)N[C@@H](CC(=O)O)C(=O)O [Mem_30] (H-RGHLRIAGHHLGRCD-OH)

>  <IC50>
1230 nM

$$$$
>  <Molecule>
CC[C@H](C)[C@H](NC(=O)[C@H](CCCNC(=N)N)NC(=O)[C@H](CCCNC(=N)N)NC(=O)[C@@H](NC(=O)[C@H](C)NC(=O)[C@H](CCCNC(=N)N)NC(=O)[C@H](CCCNC(=N)N)NC(=O)[C@H](Cc1ccc(O)cc1)NC(=O)[C@@H](N)Cc1ccc(O)cc1)[C@@H](C)O)C(=O)N[C@@H](CCCNC(=N)N)C(=O)NCC(=O)NCC(=O)N[C@@H](CC(=O)O)C(=O)NCC(=O)N[C@@H](CCCCN)C(=O)O [Ncl_P18] (H-YYRRATRRIRGGDGK-OH)

>  <IC50>
16500 nM

$$$$

Find the recorded IC50 belonging to CC[C@H](C)[C@H](NC(=O)[C@H](Cc1c[nH]cn1)NC(=O)[C@H](CCCCN)NC(=O)[C@H](CC(N)=O)NC(=O)[C@H](CC(C)C)NC(=O)[C@H](CC(C)C)NC(=O)[C@@H](NC(=O)[C@@H](NC(=O)[C@H](CCC(N)=O)NC(=O)[C@H](CC(=O)O)NC(=O)[C@H](CCCCN)NC(=O)[C@@H](N)Cc1ccccc1)C(C)C)[C@@H](C)CC)C(=O)N[C@@H](CC(=O)O)C(=O)N[C@@H](C)C(=O)N[C@@H](Cc1ccc(O)cc1)C(=O)O [Ncl_70] (H-FKDQVILLNKHIDAY-OH) and report it.
89 nM

Can you handle CC[C@H](C)[C@H](NC(=O)[C@H](CCC(=O)O)NC(=O)[C@@H](N)CCCCN)C(=O)N[C@H](C(=O)N[C@H](C(=O)N[C@@H](C)C(=O)N[C@H](C(=O)N[C@@H](CO)C(=O)N[C@@H](CCCNC(=N)N)C(=O)N[C@H](C(=O)N[C@@H](CC(C)C)C(=O)N[C@@H](CO)C(=O)N[C@@H](Cc1ccc(O)cc1)C(=O)N[C@@H](Cc1ccc(O)cc1)C(=O)N[C@@H](CCCCN)C(=O)O)[C@@H](C)O)[C@@H](C)O)C(C)C)[C@@H](C)O [Mem_34] (H-KEITVATSRTLSYYK-OH) next?
174 nM

What do you have for CC(C)C[C@H](NC(=O)[C@H](C)NC(=O)[C@@H](NC(=O)[C@H](Cc1ccccc1)NC(=O)[C@H](Cc1c[nH]c2ccccc12)NC(=O)[C@@H](N)CO)[C@@H](C)O)C(=O)N[C@H](C(=O)N[C@@H](CCC(N)=O)C(=O)N[C@@H](Cc1c[nH]cn1)C(=O)NCC(=O)N[C@@H](CCCCN)C(=O)N[C@@H](CCC(=O)O)C(=O)N[C@@H](CC(=O)O)C(=O)N[C@@H](CC(C)C)C(=O)N[C@@H](CCCCN)C(=O)O)[C@@H](C)O [Ncl_11] (H-SWFTALTQHGKEDLK-OH) ?
7870 nM

Reference for the values: paper PMC8445433
